Read-out: Cytochrome P450 3A7 (Homo sapiens) (UniProt P24462)
Sequence (P24462 whole entry, looked up): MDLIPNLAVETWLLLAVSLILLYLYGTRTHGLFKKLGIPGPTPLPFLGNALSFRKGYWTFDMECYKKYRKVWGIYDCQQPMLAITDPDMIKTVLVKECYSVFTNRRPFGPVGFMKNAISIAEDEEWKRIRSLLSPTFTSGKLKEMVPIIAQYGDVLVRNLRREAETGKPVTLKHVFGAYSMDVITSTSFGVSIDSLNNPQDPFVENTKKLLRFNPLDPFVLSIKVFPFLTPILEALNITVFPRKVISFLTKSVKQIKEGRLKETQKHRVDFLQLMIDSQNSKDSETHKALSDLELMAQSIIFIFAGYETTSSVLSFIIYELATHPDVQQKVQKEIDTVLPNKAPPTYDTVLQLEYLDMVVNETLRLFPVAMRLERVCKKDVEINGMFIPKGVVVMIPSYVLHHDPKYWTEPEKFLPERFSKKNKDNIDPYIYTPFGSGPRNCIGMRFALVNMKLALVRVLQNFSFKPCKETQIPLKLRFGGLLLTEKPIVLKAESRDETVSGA
protocol-details: LTEA_HepaRG_CYP3A7: Life Technologies and Expression Analysis (LTEA) Assay for CYP3A7 using HepaRG (AID 2283492)
protocol-conditions: mRNA level, 48 h; actives raise or lower the signal
The source made the active and inactive calls. How the source made its calls: active means hit-call score of the fitted dose curve at least 0.9, where 1 is the maximum; inactive means score below 0.9.
measured-endpoint: outcome

{"compound": "CC(C)CC(C)O (stereo not drawn)", "value-measured": "inactive"}
{"compound": "OC[C@H]1O[C@@](CO)(O[C@H]2O[C@H](CO)[C@@H](O)[C@H](O)[C@H]2O)[C@@H](O)[C@@H]1O", "value-measured": "inactive"}
{"compound": "CC[C@H](C)C(=O)O[C@H]1C[C@H](O)C=C2C=C[C@H](C)[C@H](CC[C@@H](O)C[C@@H](O)CC(=O)O)[C@H]21", "value-measured": "inactive"}
{"compound": "CCCCCCCC/C=C\\CCCCCCCC(=O)OC[C@@H](O)[C@H]1OC[C@H](O)[C@H]1O", "value-measured": "inactive"}

Using the record for "CCCCCCCCCC" , report its outcome. inactive

Which value of outcome has been reported for "COCc1nnc(-c2ccc[n+]([O-])c2)n1-c1c(Cl)c(Cl)cc2[nH]c(=O)c(=O)[nH]c12" in the records? inactive

Item under review: "O=C1CN(N=Cc2ccc([N+](=O)[O-])o2)C(=O)N1" . Reported outcome? inactive

Recorded outcome for "CC(=O)c1ccccc1" , please? inactive
